// provenance: patent US20210246200A1

- assayedSystem: T1, Proleukin® (aldesleukin) (human, UniProt P60568 21-153, limits assumed)
- T1 construct: Variant of human wt IL-2 with C145S (C125S on mature IL-2); also called IL-2 (Proleukin®); human IL-2 (Proleukin)
- T1 sequence (P60568 other isoform, or with tags, fused parts or gaps limits assumed): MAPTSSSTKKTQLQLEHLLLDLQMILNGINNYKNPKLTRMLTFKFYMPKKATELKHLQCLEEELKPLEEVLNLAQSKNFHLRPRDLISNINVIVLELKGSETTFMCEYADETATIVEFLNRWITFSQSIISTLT
- testDetails: ELISA, coated Proleukin, serially diluted supernatant
assayMetric: EC50 (pM)
Give the number; pM is assumed, so skip it.

EC50 recorded for this binder, Antibody No: 20 (antibody, human IgG1, kappa, N297A, V domains shown, VK M33L + A50S; also called 108928) VH: EVQLVQSGAEVKKPGESLKISCKGSGYAFTNYLIEWVRQMPGKGLEWMGVINPGSGGTYYNEKFKGQVTISADKSISTAYLQWSSLKASDTAMYYCARWRGEGYYAYYDVWGQGTTVTVSS VL: AIRLTQSPSSFSASTGDRVTITCKASQSVDYQGDSYLNWYQQKPGKAPKLLIYSASNLESGVPSRFSGSGSGTDFTLTISSLQSEDFATYYCQQSNEDPYTFGGGTKVEIKR , is 270

EC50 recorded for this binder, 104348_VH5D98E_VK1D28Q (antibody, human IgG1, kappa, N297A, V domains shown, also called Antibody No: 1; parental antibody) VH: EVQLVQSGAEVKKPGESLKISCKGSGYAFTNYLIEWVRQMPGKGLEWMGVINPGSGGTNYNEKFKGQVTISADKSISTAYLQWSSLKASDTAMYYCARWRGEGYYAYFDVWGQGTTVTVSS VL: AIRLTQSPSSFSASTGDRVTITCKASQSVDYQGDSYMNWYQQKPGKAPKLLIYAASNLESGVPSRFSGSGSGTDFTLTISSLQSEDFATYYCQQSNEDPYTFGGGTKVEIKR , is 1040

EC50 recorded for this binder, Antibody No: 9 (antibody, human IgG1, kappa, N297A, V domains shown, VK A50T; HEK293F supernatant) VH: EVQLVQSGAEVKKPGESLKISCKGSGYAFTNYLIEWVRQMPGKGLEWMGVINPGSGGTNYNEKFKGQVTISADKSISTAYLQWSSLKASDTAMYYCARWRGEGYYAYYDVWGQGTTVTVSS VL: AIRLTQSPSSFSASTGDRVTITCKASQSVDYQGDSYMNWYQQKPGKAPKLLIYTASNLESGVPSRFSGSGSGTDFTLTISSLQSEDFATYYCQQSNEDPYTFGGGTKVEIKR , is 500
